Values were extracted from patent US7378446B2.

Please go through the items and note down their CC50.
experiment: in vitro; type: cell-based; conditions: human; replicon cells, 3 days culture with compound, Cell Counting Kit 8, absorbance 450 nm; read-out: Cytotoxicity CC50

Some solved entries appear below for comparison.
Qu. I would be grateful if you could share the reported CC50 for CCCCCCCC(=O)CCCCCC/C=C/[C@H](C(=O)N[C@@H](Cc1ccc(-c2cccc(OC)c2)cc1)C(=O)O)[C@@](O)(CC(=O)O)C(=O)O [Compound 62] .
Ans. > 1000 nM

Qu. I would be grateful if you could share the reported CC50 for CCCCCCCC(=O)CCCCCC/C=C/[C@H](C(=O)N[C@@H](Cc1ccc(-c2ccccc2F)cc1)C(=O)O)[C@@](O)(CC(=O)O)C(=O)O [Compound 65] .
Ans. > 1000 nM

Qu. I would be grateful if you could share the reported CC50 for CCCCCCCC(=O)CCCCCC/C=C/[C@H](C(=O)N[C@@H](Cc1ccc(OCC#CC#CC(C)(C)C)cc1)C(=O)O)[C@@](O)(CC(=O)O)C(=O)O [Compound 111] .
Ans. > 1000 nM

Qu. I would be grateful if you could share the reported CC50 for CCCCCCCC(=O)CCCCCC/C=C/[C@H](C(=O)NC(Cc1ccc(OC)cc1)C(=O)O)[C@@](O)(CC(=O)O)C(=O)O (some centres unmarked) [Compound 43] .
Ans. > 1000 nM

Qu. I would be grateful if you could share the reported CC50 for CCCCCCCC(=O)CCCCCC/C=C/[C@H](C(=O)N[C@@H](Cc1ccc(Oc2ccc(C#N)cc2)cc1)C(=O)O)[C@@](O)(CC(=O)O)C(=O)O [Compound 70] .
Ans. > 1000 nM

Qu. I would be grateful if you could share the reported CC50 for CC(C)CCOc1ccc(C[C@H](NC(=O)[C@@H](/C=C/CCCCCCC(=O)CCC2CCCCC2)[C@](O)(CC(=O)O)C(=O)O)C(=O)O)cc1 [Compound 52] .
Ans. > 1000 nM

Qu. I would be grateful if you could share the reported CC50 for CCCCCCC(=O)CCCCCC/C=C/[C@H](C(=O)N[C@@H](Cc1ccc(-c2ccccc2)cc1)C(=O)O)[C@@](O)(CC(=O)O)C(=O)O [Compound 102] .
Ans. > 1000 nM

Qu. I would be grateful if you could share the reported CC50 for CCCCCCCC(=O)CCCCCC/C=C/[C@H](C(=O)N[C@@H](Cc1ccc(NC(C)=O)cc1)C(=O)O)[C@@](O)(CC(=O)O)C(=O)O [Compound 93] .
Ans. > 1000 nM

Batch request: CC50 per item, same order as input.
1. CCCCCCCC(=O)CCCCCC/C=C/[C@H](C(=O)N[C@@H](Cc1ccc(-n2cc(C(=O)OCC)nn2)cc1)C(=O)O)[C@@](O)(CC(=O)O)C(=O)O [Compound 96]
2. CCCCCCCC(=O)CCCCCC/C=C/[C@H](C(=O)N[C@@H](Cc1ccc(Oc2ccc(F)cc2)cc1)C(=O)O)[C@@](O)(CC(=O)O)C(=O)O [Compound 25]
3. CCCCCCCC(=O)CCCCCC/C=C/[C@H](C(=O)N[C@@H](Cc1ccc(-c2ccccc2)cc1)C(=O)O)[C@@](O)(CC(=O)O)C(=O)O [Compound 19]
4. C=CCCCCCC(=O)CCCCCC/C=C/[C@H](C(=O)N[C@@H](Cc1ccc(OCCC(C)C)cc1)C(=O)O)[C@@](O)(CC(=O)O)C(=O)O [Compound 48]
5. CCCCCCCC(=O)CCCCCC/C=C/[C@H](C(=O)N[C@@H](Cc1ccc(-c2ccc(S(C)(=O)=O)cc2)cc1)C(=O)O)[C@@](O)(CC(=O)O)C(=O)O [Compound 80]
6. CCCCCCCC(=O)CCCCCC/C=C/[C@H](C(=O)N[C@@H](Cc1ccc(-c2ccc(C)cc2)cc1)C(=O)O)[C@@](O)(CC(=O)O)C(=O)O [Compound 59]
7. CCCCCCCC(=O)CCCCCC/C=C/[C@H](C(=O)N[C@@H](Cc1ccc(-c2ccc(F)cc2F)cc1)C(=O)O)[C@@](O)(CC(=O)O)C(=O)O [Compound 30]
8. CCCCCCCC(=O)CCCCCC/C=C/[C@H](C(=O)N[C@@H](Cc1ccc(-c2ccc(C(F)(F)F)cc2)cc1)C(=O)O)[C@@](O)(CC(=O)O)C(=O)O [Compound 60]

Ans.
1. > 1000 nM
2. > 1000 nM
3. > 5000 nM
4. > 1000 nM
5. > 1000 nM
6. > 1000 nM
7. > 1000 nM
8. > 1000 nM
